Entry source: ChEMBL document CHEMBL3232722

assay target: Tyrosine-protein kinase ABL1 (Homo sapiens)
method: Inhibition of recombinant Abl kinase (unknown origin) expressed in Sf9 cells assessed as residual enzyme activity using GGEAIYAAPFKK as substrate at 50 uM in presence of [gamma33P]ATP
measurement type: Activity (%)

>>> meas_value("Cc1nn(C)c2nnc(Nc3ccc(S(N)(=O)=O)cc3)nc12")
33

I: Cc1nn(C)c2nnc(Nc3ccc(S(=O)(=O)N4CCN(C)CC4)cc3)nc12
II: Cc1nn(C)c2nnc(Nc3ccc(S(=O)(=O)N4CCCC4)cc3)nc12
Incoming: Which value of Activity is greater, the one for I or the one for II ? Pick one; state its label.
Outgoing: II

====

We begin with a simple list: items and their reported pIC50.
assay target: Casein kinase II subunit alpha (Homo sapiens, UniProt P68400)
Sequence (P68400 whole entry): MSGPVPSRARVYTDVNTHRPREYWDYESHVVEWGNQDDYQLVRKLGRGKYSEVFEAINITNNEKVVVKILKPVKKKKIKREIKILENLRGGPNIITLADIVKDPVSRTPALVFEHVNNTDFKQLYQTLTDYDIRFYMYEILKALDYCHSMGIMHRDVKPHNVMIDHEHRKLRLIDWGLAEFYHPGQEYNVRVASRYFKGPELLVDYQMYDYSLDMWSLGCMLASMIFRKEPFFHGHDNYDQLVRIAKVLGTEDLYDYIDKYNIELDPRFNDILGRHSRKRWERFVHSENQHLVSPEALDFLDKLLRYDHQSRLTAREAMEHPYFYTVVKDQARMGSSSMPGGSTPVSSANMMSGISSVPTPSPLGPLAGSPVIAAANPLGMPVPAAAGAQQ
method: Inhibition of CK2alpha1 (unknown origin) using casein as substrate in presence of [gamma33P]ATP
pIC50: −log10 of the molar value.

Solved cases below.
>>> meas_value("Cc1nn(C)c2nnc(Nc3ccc(S(=O)(=O)NC(CO)C(C)C)cc3)nc12 (configuration not stated)")
"< 4.30"
>>> meas_value("Cc1nn(C)c2nnc(Nc3ccc(S(=O)(=O)NCC(O)CO)cc3)nc12 (configuration not stated)")
"< 4.30"
>>> meas_value("Cc1nn(C)c2nnc(Nc3ccc(S(=O)(=O)NCCO)cc3)nc12")
"< 4.30"
>>> meas_value("Cc1nn(C)c2nnc(Nc3ccc(S(=O)(=O)N4CCNCC4)cc3)nc12")
"< 4.60"
>>> meas_value("Cc1nn(C)c2nnc(Nc3ccc(S(N)(=O)=O)cc3)nc12")
"< 4.30"

Incoming: Query (compound): Cc1nn(C)c2nnc(Nc3ccc(S(=O)(=O)NCCN4CCOCC4)cc3)nc12 ; field requested: pIC50
Outgoing: < 4.30

Incoming: // next record Cc1nn(C)c2nnc(Nc3ccc(S(=O)(=O)N4CCCNCC4)cc3)nc12
Outgoing: < 4.30

Incoming: // next record Cc1nn(C)c2nnc(Nc3ccc(S(=O)(=O)N4CCCC4)cc3)nc12
Outgoing: < 4.30

Incoming: // next record Cc1nn(C)c2nnc(Nc3ccc(S(=O)(=O)N4CCN(C)CC4)cc3)nc12
Outgoing: < 4.30

Incoming: // next record Cc1nn(C)c2nnc(Nc3ccc(S(=O)(=O)N4CCCCC4)cc3)nc12
Outgoing: < 4.60

Incoming: // next record Cc1nn(C)c2nnc(Nc3ccc(S(=O)(=O)NCCN)cc3)nc12
Outgoing: < 4.30

Incoming: // next record Cc1nn(C)c2nnc(Nc3ccc(S(=O)(=O)N4CCOCC4)cc3)nc12
Outgoing: < 4.60

====

assay target: Tyrosine-protein kinase ABL1 (Homo sapiens, UniProt P00519)
Sequence (P00519 whole entry): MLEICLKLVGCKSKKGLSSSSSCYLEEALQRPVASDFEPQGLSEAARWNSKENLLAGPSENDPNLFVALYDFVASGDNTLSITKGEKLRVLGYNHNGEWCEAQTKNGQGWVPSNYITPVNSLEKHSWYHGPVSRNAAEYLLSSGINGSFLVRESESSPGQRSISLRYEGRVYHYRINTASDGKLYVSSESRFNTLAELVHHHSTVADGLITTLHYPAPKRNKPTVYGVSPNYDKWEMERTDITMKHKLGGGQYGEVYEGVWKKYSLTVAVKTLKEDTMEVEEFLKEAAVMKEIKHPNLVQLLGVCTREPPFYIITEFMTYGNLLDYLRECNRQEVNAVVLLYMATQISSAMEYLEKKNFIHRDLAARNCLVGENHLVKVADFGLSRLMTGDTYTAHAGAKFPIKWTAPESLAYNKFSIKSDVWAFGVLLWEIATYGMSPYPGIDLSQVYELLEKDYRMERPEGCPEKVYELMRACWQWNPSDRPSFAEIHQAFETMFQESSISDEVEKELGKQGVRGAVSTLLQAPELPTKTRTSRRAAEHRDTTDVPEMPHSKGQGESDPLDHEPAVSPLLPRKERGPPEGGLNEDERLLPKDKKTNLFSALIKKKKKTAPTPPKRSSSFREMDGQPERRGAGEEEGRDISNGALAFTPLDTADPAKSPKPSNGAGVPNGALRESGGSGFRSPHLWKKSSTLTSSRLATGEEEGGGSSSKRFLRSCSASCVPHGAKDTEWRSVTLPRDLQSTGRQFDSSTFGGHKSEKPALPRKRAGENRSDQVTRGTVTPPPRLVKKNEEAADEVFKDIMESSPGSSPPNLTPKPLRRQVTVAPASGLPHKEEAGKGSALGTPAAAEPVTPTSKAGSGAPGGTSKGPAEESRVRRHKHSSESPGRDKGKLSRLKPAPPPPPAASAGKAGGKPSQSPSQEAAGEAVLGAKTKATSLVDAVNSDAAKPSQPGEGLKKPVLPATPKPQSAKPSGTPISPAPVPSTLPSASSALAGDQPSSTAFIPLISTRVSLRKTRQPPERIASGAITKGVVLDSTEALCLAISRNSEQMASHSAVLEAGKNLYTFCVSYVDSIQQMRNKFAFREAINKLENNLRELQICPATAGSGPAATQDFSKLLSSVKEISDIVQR
method: Inhibition of recombinant Abl kinase (unknown origin) expressed in Sf9 cells using GGEAIYAAPFKK as substrate in presence of [gamma33P]ATP
measurement type: IC50 (µM)

>>> meas_value("Cc1nn(C)c2nnc(Nc3ccc(S(=O)(=O)N4CCCNCC4)cc3)nc12")
5.9

I: Cc1nn(C)c2nnc(Nc3ccc(S(=O)(=O)N4CCNCC4)cc3)nc12
II: Cc1nn(C)c2nnc(Nc3ccc(S(=O)(=O)NCCN)cc3)nc12
III: Cc1nn(C)c2nnc(Nc3ccc(S(=O)(=O)NCCO)cc3)nc12
Incoming: List these items ordered by IC50, big to small. Field: ranking. Enter the labels in the order requested.
Outgoing: III, II, I
(III: 39 µM, II: 15 µM, I: 5.8 µM)
